System tested: Substance-K receptor (Homo sapiens)
Sequence (P21452 whole entry): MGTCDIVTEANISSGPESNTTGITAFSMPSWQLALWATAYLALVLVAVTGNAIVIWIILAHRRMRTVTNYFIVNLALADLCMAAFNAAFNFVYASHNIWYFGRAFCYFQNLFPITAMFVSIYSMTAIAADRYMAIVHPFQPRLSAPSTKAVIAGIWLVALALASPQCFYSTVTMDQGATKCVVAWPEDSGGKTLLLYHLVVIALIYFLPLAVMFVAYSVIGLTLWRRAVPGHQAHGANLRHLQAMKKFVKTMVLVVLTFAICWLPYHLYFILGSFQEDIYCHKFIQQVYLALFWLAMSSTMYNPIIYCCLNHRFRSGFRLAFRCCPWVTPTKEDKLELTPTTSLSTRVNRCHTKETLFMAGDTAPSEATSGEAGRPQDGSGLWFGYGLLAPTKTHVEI
Attribute measured: IC50 (µM)
Note: unit µM is implicit; provide only the numeric part.

For Substance-K receptor (Homo sapiens), provide IC50 of `COCCOc1ncc(C(=O)N[C@@H]2CCCC[C@H]2O)cc1-c1ccc(Cl)cc1` please.
46

====

Assay protocol: Oral bioavailability in rat at 7.9 mg/kg
Format: ADME, organism-based
Condition summary: in vivo
Attribute measured: bioavailability (%)
Note: unit % is implicit; provide only the numeric part.

Please give the measured bioavailability for this molecule: `O=C(N[C@@H]1CCCC[C@H]1O)c1cnc(OCC2CC2)c(-c2ccc(Cl)cc2)c1`
23

====

Assay protocol: Tmax in rat plasma at 10 mg/kg, po
Assay type: ADME, organism-based
Parameters: dose 10 mg/kg, route oral
Attribute measured: Tmax (h)
Note: unit h is implicit; provide only the numeric part.

Please give the measured Tmax for this compound: `Cc1c(C(=O)NN2CCCCC2)nn(-c2ccc(Cl)cc2Cl)c1-c1ccc(Cl)cc1`
1.5

====

Each entry below lists one item and its recorded concentration at 240 h value.
Assay protocol: Drug uptake in Sprague-Dawley rat brain at 30 mg/kg, po qd after 10 days by LC-MS/MS analysis
Format: ADME, organism-based
Parameters: dose 30 mg/kg, route oral
Condition summary: read-out: Drug uptake
Note: unit ng/g is implicit; provide only the numeric part.

- Structure smiles: "COCCOc1ncc(C(=O)N[C@@H]2CCCC[C@H]2O)cc1-c1ccc(Cl)cc1"
  Observed value: 130

Here's the next entry for you.
Please give the measured concentration at 240 h for this compound: `O=C(N[C@@H]1CCCC[C@H]1O)c1cnc(OCC2CC2)c(-c2ccc(Cl)cc2)c1`
1400

====

pKi: −log10 of the molar value.
Entries with reported pKi on Cannabinoid receptor 2 (Homo sapiens)
Sequence (P34972 whole entry): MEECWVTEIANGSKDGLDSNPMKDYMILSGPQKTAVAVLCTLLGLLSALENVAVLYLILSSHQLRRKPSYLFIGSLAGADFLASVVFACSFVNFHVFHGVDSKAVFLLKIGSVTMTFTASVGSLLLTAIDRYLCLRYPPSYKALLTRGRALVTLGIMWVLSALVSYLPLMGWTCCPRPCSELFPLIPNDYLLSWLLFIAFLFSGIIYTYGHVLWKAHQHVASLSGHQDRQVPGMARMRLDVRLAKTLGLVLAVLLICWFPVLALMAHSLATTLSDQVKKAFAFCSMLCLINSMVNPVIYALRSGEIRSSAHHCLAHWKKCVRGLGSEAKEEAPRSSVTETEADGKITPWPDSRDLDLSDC

- Structure smiles: "COCCOc1ncc(C(=O)N[C@@H]2CCCC[C@H]2O)cc1-c1ccc(Cl)cc1"
  pKi: "< 5.00"
- Structure smiles: "O=C(N[C@@H]1CCCC[C@H]1O)c1cc(-c2ccc(Cl)cc2)c(OCC2CC2)nn1"
  pKi: "< 5.52"
- Structure smiles: "O=C(NN1CCCCC1)c1cnc(OCC2CC2)c(-c2ccc(Cl)cc2)c1"
  pKi: "< 5.00"
- Structure smiles: "O=C(N[C@H]1CCCC[C@H]1O)c1cnc(OCC2CC2)c(-c2ccc(Cl)cc2)c1"
  pKi: "< 5.15"
- Structure smiles: "O=C(N[C@@H]1CCCC[C@H]1O)c1cnc(OCc2cccnc2)c(-c2ccc(Cl)cc2)c1"
  pKi: "< 5.00"

Please give the measured pKi for this compound: `O=C(N[C@@H]1CCCC[C@H]1O)c1cnc(OCC2CC2)c(-c2ccc(Cl)c(Cl)c2)c1`
5.90

Please give the measured pKi for this compound: `O=C(N[C@@H]1CCCC[C@H]1O)c1cnc(OC2CCCCC2)c(-c2ccc(Cl)cc2)c1`
< 5.00

Please give the measured pKi for this compound: `O=C(N[C@@H]1CCCC[C@H]1O)c1cnc(OCC2CC2)c(-c2ccc(F)cc2)c1`
< 5.00

Please give the measured pKi for this compound: `O=C(N[C@@H]1CCCC[C@H]1O)c1cnc(OCC2CC2)c(-c2ccc(Cl)cc2)c1`
< 5.15

Please give the measured pKi for this compound: `O=C(N[C@@H]1CCCC[C@H]1O)c1cnc(OC2CCC2)c(-c2ccc(Cl)cc2)c1`
< 5.00

Please give the measured pKi for this compound: `NS(=O)(=O)c1ccc(-c2cc(C(=O)N[C@@H]3CCCC[C@H]3O)cnc2OCC2CC2)cc1`
< 5.00

====

Assay protocol: Cmax in rat plasma at 10 mg/kg, po
Type: ADME, organism-based
Parameters: dose 10 mg/kg, route oral
Attribute measured: Cmax (ng/mL)
Note: unit ng/mL is implicit; provide only the numeric part.

Please give the measured Cmax for this compound: `Cc1c(C(=O)NN2CCCCC2)nn(-c2ccc(Cl)cc2Cl)c1-c1ccc(Cl)cc1`
244

====

Tested on: Liver microsome
Assay protocol: Clearance in rat liver microsomes at 2 uM by LC-MS/MS analysis
Format: ADME
// returns f unless CLH is strictly below 200 µL/min/mg, in which case t

Solved entries (count: 5):
- Structure smiles: "O=C(N[C@@H]1CCCC[C@H]1O)c1cnc(OCC2CC2)c(-c2ccc(F)cc2)c1"
  Group: "t"
- Structure smiles: "O=C(N[C@@H]1CCCC[C@H]1O)c1cnc(OCC2CC2)c(-c2cc(C(F)(F)F)ccc2Cl)c1"
  Group: "t"
- Structure smiles: "O=C(N[C@@H]1CCCC[C@H]1O)c1cnc(OCC2CC2)c(-c2ccc(OC(F)(F)F)cc2)c1"
  Group: "t"
- Structure smiles: "O=C(N[C@@H]1CCCC[C@H]1O)c1cnc(OCc2ccccc2)c(-c2ccc(Cl)cc2)c1"
  Group: "t"
- Structure smiles: "O=C(N[C@@H]1CCCC[C@H]1O)c1cnc(OC2CCC2)c(-c2ccc(Cl)cc2)c1"
  Group: "f"

Is the reported CLH for `Cc1cc(COc2ncc(C(=O)N[C@@H]3CCCC[C@H]3O)cc2-c2ccc(Cl)cc2)on1` strictly below 200 µL/min/mg?
t

Is the reported CLH for `CCCCOc1ncc(C(=O)N[C@@H]2CCCC[C@H]2O)cc1-c1ccc(Cl)cc1` strictly below 200 µL/min/mg?
t

Is the reported CLH for `C[C@](O)(CNC(=O)c1cnc(OCC2CC2)c(-c2ccc(Cl)cc2)c1)C1CC1` strictly below 200 µL/min/mg?
t

Is the reported CLH for `Cc1c(C(=O)N[C@@H]2CCCC[C@H]2O)cc(-c2cc(C(F)(F)F)ccc2Cl)n1CC1CCCCC1` strictly below 200 µL/min/mg?
f

Is the reported CLH for `O=C(N[C@@H]1CCCC[C@H]1O)c1cnc(OCc2ccccn2)c(-c2ccc(Cl)cc2)c1` strictly below 200 µL/min/mg?
t

Is the reported CLH for `O=C(N[C@@H]1CCCC[C@H]1O)c1cnc(OCC2CC2)c(-c2ccc(Cl)cc2)c1` strictly below 200 µL/min/mg?
t

Is the reported CLH for `O=C(N[C@@H]1CCCC[C@@H]1O)c1cnc(OCC2CC2)c(-c2ccc(Cl)cc2)c1` strictly below 200 µL/min/mg?
t

Is the reported CLH for `COCCOc1ncc(C(=O)N[C@@H]2CCCC[C@H]2O)cc1-c1ccc(Cl)cc1` strictly below 200 µL/min/mg?
t

Is the reported CLH for `O=C(N[C@@H]1CCCC[C@H]1O)c1cnc(OCC(F)(F)F)c(-c2ccc(Cl)cc2)c1` strictly below 200 µL/min/mg?
t

Is the reported CLH for `O=C(N[C@@H]1CCCC[C@H]1O)c1cnc(Oc2ccccc2)c(-c2ccc(Cl)cc2)c1` strictly below 200 µL/min/mg?
f

Is the reported CLH for `O=C(N[C@@H]1CCCC[C@H]1O)c1cnc(OC2CCCCC2)c(-c2ccc(Cl)cc2)c1` strictly below 200 µL/min/mg?
f

Is the reported CLH for `O=C(N[C@@H]1CCCC[C@H]1O)c1cnc(OCc2ncccn2)c(-c2ccc(Cl)cc2)c1` strictly below 200 µL/min/mg?
t

Is the reported CLH for `CN(CC1CC1)c1ncc(C(=O)N[C@@H]2CCCC[C@H]2O)cc1-c1ccc(Cl)cc1` strictly below 200 µL/min/mg?
f

Is the reported CLH for `O=C(N[C@@H]1CCCC[C@H]1O)c1cnc(CCC2CC2)c(-c2ccc(Cl)cc2)c1` strictly below 200 µL/min/mg?
f

====

Assay protocol: Volume of distribution at steady state in rat at 3.3 mg/kg, iv
Assay type: ADME, organism-based
Set-up: dose 3.3 mg/kg, route intravenous
Condition summary: in vivo, read-out: Vdss
Attribute measured: Vd (L/kg)
Note: unit L/kg is implicit; provide only the numeric part.

Please give the measured Vd for this molecule: `COCCOc1ncc(C(=O)N[C@@H]2CCCC[C@H]2O)cc1-c1ccc(Cl)cc1`
0.7

====

Assay protocol: Tmax in po dosed rat plasma
Format: ADME, organism-based
Attribute measured: Tmax (h)
Note: unit h is implicit; provide only the numeric part.

Please give the measured Tmax for this molecule: `Cc1c(C(=O)NN2CCCCC2)nn(-c2ccc(Cl)cc2Cl)c1-c1ccc(Cl)cc1`
1

====

Each entry below lists one item and its recorded fraction unbound value.
Assay protocol: Plasma protein binding in rat
Type: ADME, cell-free
Condition summary: read-out: PPB (converted)
Reply with just the number.

- Structure smiles: "Cc1c(C(=O)NN2CCCCC2)nn(-c2ccc(Cl)cc2Cl)c1-c1ccc(Cl)cc1"
  Observed value: 0.003

Here's the next entry for you.
Please give the measured fraction unbound for this compound: `COCCOc1ncc(C(=O)N[C@@H]2CCCC[C@H]2O)cc1-c1ccc(Cl)cc1`
0.039

====

Assay protocol: Tmax in rat plasma at 7.9 mg/kg, po
Assay type: ADME, organism-based
Design: dose 7.9 mg/kg, route oral
Attribute measured: Tmax (h)
Note: unit h is implicit; provide only the numeric part.

Please give the measured Tmax for this compound: `O=C(N[C@@H]1CCCC[C@H]1O)c1cnc(OCC2CC2)c(-c2ccc(Cl)cc2)c1`
1.9
